Biological target: GABA-A receptor; alpha-1/beta-3/gamma-2 (Homo sapiens, UniProt P14867+P18507+P28472, F289S)
Assay: Positive allosteric modulation of GABA-A alpha1beta3(F289S)gamma2S mutant receptor (unknown origin) expressed in Xenopus laevis oocytes assessed as increase in GABA-induced chloride current after 15 mins at -70 mV holding potential by two-microelectrode voltage clamp method
MEASURE_NAME: EC50 (µM)

INSERT INTO results (mol, numeric_result) VALUES
  ('C/C(=C/C#N)c1ccc(Cl)cc1Cl', 171);
